Item-by-item account of GI50
System: SNB-75
Assay: NCI tumour cell line growth inhibition, 48 h
Activity calls are given as the source filed them. Rule as the data show it: active = GI50 up to about 1.1 µM and inactive = higher.

| compound | measured target | GI50 |
| --- | --- | --- |
| COC(=O)CCC(=O)C(C#N)c1ccc(Cl)cc1Cl (centres undefined) | SNB-75 | > 100 µM (inactive) |
| CCOC1CCN(C(=O)c2ccccc2)O1 (centres undefined) | SNB-75 | > 10 µM (inactive) |
| O=C(c1ccccc1)c1ccc2cccc(O)c2n1 | SNB-75 | 30.5 µM (inactive) |
| Nc1nc(N)c2nc(CN(C=O)c3ccc(C(=O)O)cc3)cnc2n1 | SNB-75 | > 52.1 µM (inactive) |
| CC1(C)[C@@H]2C[C@H]1[C@@H](Cc1cccc(C[C@H]3c4cc(-c5ccccn5)ncc4[C@H]4C[C@@H]3C4(C)C)c1)c1cc(-c3ccccn3)ncc12 | SNB-75 | > 22.8 µM (inactive) |
| O=c1cc(/C=C/c2ccc(O)c(O)c2)oc(/C=C/c2ccc(O)c(O)c2)c1 | SNB-75 | 4.41 µM (inactive) |
| C(/COc1cccnc1)=N\NC1=NCCN1 | SNB-75 | > 100 µM (inactive) |
| O=C1/C(=N\O)C2CCC1C2 (centres undefined) | SNB-75 | > 100 µM (inactive) |
| CC1=NN(c2cccc(Cl)c2)C2(SCC(=O)N2c2nc3ccccc3s2)/C1=C\c1cccs1 (centres undefined) | SNB-75 | 17.5 µM (inactive) |
| CN(CCO)CC(=O)CC(O)(C(F)(F)F)C(F)(F)F | SNB-75 | 14.5 µM (inactive) |
| O=c1c2cc([N+](=O)[O-])ccc2oc2nc3n(c(=O)c12)CCCS3 | SNB-75 | 64.9 µM (inactive) |
| c1cc2c3ccsc3c3sccc3c2s1 | SNB-75 | 23.1 µM (inactive) |
| COc1ccc2c(C)cc(=O)oc2c1OC | SNB-75 | > 100 µM (inactive) |
| CCOC(=O)/C=C1/C(CCCOCc2ccccc2)C2CCCC23CC2(CCN13)OCCO2 (centres undefined) | SNB-75 | 2.99 µM (inactive) |
| Fc1cccc(C2SCc3nc4ccccc4n32)c1 (centres undefined) | SNB-75 | 36.4 µM (inactive) |
| CS(=O)(=O)OCCCOS(C)(=O)=O | SNB-75 | > 100 µM (inactive) |
| CC1=CC(=O)C(=O)C2=C1OC1(C2)C(C)CCC2C3(C)CCC(O)C(C)(C)C3CCC21C (centres undefined) | SNB-75 | 48.4 µM (inactive) |
| O=C(CC(=O)Nc1ccccc1O)Nc1ccccc1O | SNB-75 | 18.6 µM (inactive) |
| O=C1[C@H]2ON(c3ccccc3)C(c3ccco3)[C@H]2C(=O)N1c1ccc(Cc2ccc(N3C(=O)[C@@H]4ON(c5ccccc5)C(c5ccco5)[C@@H]4C3=O)cc2)cc1 (some centres undefined) | SNB-75 | > 100 µM (inactive) |
| N#Cc1c(N)c2c(c(-c3ccccc3)c1-c1ccccc1)C(=O)N(NC(=S)Nc1ccccc1)C2=O | SNB-75 | 65.2 µM (inactive) |
| O=C(O)[C@H](c1ccccc1)[C@@H](C(=O)O)c1ccccc1 | SNB-75 | > 100 µM (inactive) |
| COC(=O)C1=C(C)C(=O)C2(CCCCCC2C(=O)OC)C1 (centres undefined) | SNB-75 | > 100 µM (inactive) |
| O=C1CSC(c2ccccc2O)N1c1ccc(-n2c(-c3ccccc3)nc3ccccc3c2=O)cc1 (centres undefined) | SNB-75 | 54.1 µM (inactive) |
| N=C(N)NC(=N)Nc1ccc(S(=O)(=O)O)cc1 | SNB-75 | > 100 µM (inactive) |

---

System: OVCAR-5
Assay: NCI tumour cell line growth inhibition, 48 h
Active and inactive are the calls of the source. Rule as the data show it: active = GI50 up to about 1.1 µM and inactive = higher.

| compound | measured target | GI50 |
| --- | --- | --- |
| Cn1nc2ccc(Nc3cc(=O)[nH]c4ccc5nn(C)nc5c34)cc2n1 | OVCAR-5 | > 100 µM (inactive) |
| CN1C(=O)C(C#N)C2C[C@@]1(C)Oc1ccccc12 (some centres not stated) | OVCAR-5 | > 100 µM (inactive) |
| CCN1C/C(=C\c2ccc(Cl)cc2)c2nc(N)c(C#N)c(-c3ccc(Cl)cc3)c2C1 | OVCAR-5 | > 100 µM (inactive) |
| C=C(C)[C@@H]1CC[C@]2(C(=O)O)CC[C@]3(C)[C@H](CC[C@@H]4[C@@]5(C)CC[C@H](O)C(C)(C)[C@@H]5CC[C@]43C)[C@@H]12 [BETULINIC ACID] | OVCAR-5 | 12.4 µM (inactive) |
| COC(=O)C1=C(C)C(=O)C2(CCCCCC2C(=O)OC)C1 (configuration not stated) | OVCAR-5 | > 100 µM (inactive) |
| Cc1[nH]c(-c2ccccc2)c2nc(N(C)C)oc(=O)c12 | OVCAR-5 | > 100 µM (inactive) |
| NC(=O)C#CC#CC#CCO | OVCAR-5 | 18.9 µM (inactive) |

---

Test system: MOLT-4
Test: NCI tumour cell line growth inhibition, 48 h
The source made the active and inactive calls. Cut-off read from the data, not from the text of the source: active = GI50 up to about 1.1 µM and inactive = higher.
Outcome codes: Yes (active), No (inactive)

| molecule | class |
| --- | --- |
| CC(C)OP(=O)(OC(C)C)/C(N)=N/Nc1ccc([N+](=O)[O-])cc1 | No |
| CCOC1(OCC)N=C(N)C2(C#N)C3(C(=O)N(C(C)C)N=C3C)C12C#N (configuration not stated) | No |
| COC(=O)/C=C(\S/C(=N\n1cc(C(=O)OC)c(C(=O)OC)c1-c1ccc(C)cc1)c1ccc(C)cc1)C(=O)OC | No |
| COC(=O)c1c2c(cc3c1CC1(Cc4ccccc4C1)C3)CCC2 | No |
| COC(=O)CC(=O)OC1C[C@@H]2CCC3C(C)(C)CCC[C@]3(C)C23CC[C@@]1(C)C3 (some centres not stated) | No |
| Nc1c(-c2cn(Cc3ccccc3)c3ccccc23)[n+]([O-])c2ccccc2[n+]1[O-] | No |
| CCCCOCn1c(=O)[nH]c(=O)c2ccccc21 | No |
| CCCCN/C(=N/C#N)NCc1ccccc1 | No |
| O=S(=O)(O)c1cc(/N=N/c2c(O)ccc3ccccc23)c2c(S(=O)(=O)O)cccc2c1 | No |
| Clc1ccc(Cc2nc3ccccc3s2)c(Cl)c1 | No |
| CCOC(=O)/C=C1/C(CCCOCc2ccccc2)C2CCCC23CC2(CCN13)OCCO2 (configuration not stated) | No |
| O=C1CSC(c2ccccc2O)N1c1ccc(-n2c(-c3ccccc3)nc3ccccc3c2=O)cc1 (configuration not stated) | No |
| CCN(CC)Cc1c(/C=C\c2cc(OC)c(OC)c(OC)c2)ccc(OC)c1O | No |
| CC(=O)OCCOCn1cc(C=O)c2ccccc21 | No |
| CC(=O)OC1CCn2nnc(CO)c21 (configuration not stated) | No |
| Cc1nc2ccc(Cl)cc2c2c1CCS2 | No |
| COC1=CC2=NCCc3n[nH]c(c32)C1=O | No |
| CC(=O)Nc1ccc(S(=O)(=O)N/N=C/c2cc(I)cc([N+](=O)[O-])c2O)cc1 | No |
| CN1CCN(/C(N)=C(\C#N)C(=O)Nc2ccc(Cl)cc2)CC1 | No |
| Cc1ccc(NC(=O)c2cccc(OP(=O)(O)Nc3ccc(C)cc3)c2)cc1 | No |
| C(/COc1cccnc1)=N\NC1=NCCN1 | No |
| CCN(CC)CCC1CCCCN1CC(=O)N1c2ccccc2NC(=O)c2ccccc21 (configuration not stated) | No |
| CCN1/C(=C/C(C)=C/c2sc3ccccc3[n+]2CC)Sc2ccccc21 | Yes |
| Cc1c2c(n(C)c1C)C(=O)C1C(C2=O)C2(C)c3ccccc3C1(C)c1ccccc12 (configuration not stated) | No |
| CCOC1CCN(C(=O)c2ccccc2)O1 (configuration not stated) | No |
| CN(C)c1ccc(/C=C2\C[C@H]3[C@@H]4CC=C5C[C@@H](O)CC[C@]5(C)[C@H]4CC[C@]3(C)[C@H]2O)cc1 | No |
| ClC1=C(Cl)C2OC3C=CCC3OC2C(Cl)=C1Cl (configuration not stated) | No |
| C[N+](C)(C)CC1CCCc2ccccc2C1=O (configuration not stated) | No |
| CCCCCCCCCC1CC(=O)OC2=C1C(=O)CCC2 (configuration not stated) | No |
| Nc1ccc2c(O)cc(O)nc2n1 | No |
| O=c1cc(-c2ccc(O)cc2)oc2cc(O)cc(O)c12 [APIGENIN] | No |
| CCOC(=O)C(Cl)(NC(=O)NC(Cl)(C(=O)OCC)C(F)(F)F)C(F)(F)F (configuration not stated) | No |
